I'd appreciate it if you could supply PHOSPHORUS values for the items below.
# Species on record: Rattus norvegicus
# assaySummary: DrugMatrix - Regimen: Daily Repeat
# Format: toxicity, organism-based, Sprague-Dawley
# Parameters: regimen Daily Repeat, gender Male, age 6-8 weeks
# testConditions: in vivo, po, 0 mg/kg, 72 h, tissue Plasma, route oral GAVAGE, dose level Control, time 3 day, vehicle .5 % CMC
Quick note: number first, unit second.

Examples from the recorded data:
Cc1cc2c(s1)Nc1ccccc1N=C2N1CCN(C)CC1	11.97 mg/dL
O=C1c2ccccc2C(=O)C1c1ccccc1	11.43 mg/dL

For the next question, use this molecule.
Reported PHOSPHORUS of Nc1ccc(C(=O)O)c(O)c1 : 10.08 mg/dL

---

I'd appreciate it if you could supply CHLORIDE values for the items below.
# Species: Rattus norvegicus
# assaySummary: DrugMatrix - Regimen: Daily Repeat
# Assay type: toxicity, organism-based, Sprague-Dawley
# Parameters: regimen Daily Repeat, gender Male, age 6-8 weeks
# testConditions: in vivo, po, 0 mg/kg, 72 h, tissue Plasma, route oral GAVAGE, dose level Control, time 3 day, vehicle 100 % WATER
Numbers only, in MEQ/L.

Examples from the recorded data:
CCN(CC)C(=S)SSC(=S)N(CC)CC	102.5
Cc1cn([C@H]2C=C[C@@H](CO)O2)c(=O)[nH]c1=O	99.67
C[N+](C)(C)CCOC(N)=O.[Cl-]	99.67

Hey, quick one: what's CHLORIDE for each of these?
1. C1CCN2C[C@@H]3C[C@@H](CN4CCCC[C@@H]34)[C@H]2C1
2. CN1C(=O)OC(C)(C)C1=O
3. CC(Cl)(Cl)Cl

A:
103.83
101.67
103.83

---

I'd appreciate it if you could supply CREATINE PHOSPHOKINASE values for the items below.
# Organism: Rattus norvegicus
# assaySummary: DrugMatrix - Regimen: Daily Repeat
# Type: toxicity, organism-based, Sprague-Dawley
# Set-up: regimen Daily Repeat, gender Male, age 6-8 weeks
# testConditions: in vivo, po, 1500 mg/kg, 120 h, tissue Plasma, route oral GAVAGE, dose level High, time 5 day, vehicle .5 % CMC
Numbers only, in u/L.

Examples from the recorded data:
Cc1ccc(S(=O)(=O)NC(=O)NN2CCCCCC2)cc1 [TOLAZAMIDE]	168.67
COc1ccc(Cl)cc1C(=O)NCCc1ccc(S(=O)(=O)NC(=O)NC2CCCCC2)cc1 [GLYBURIDE]	139.33

Hey, quick one: what's CREATINE PHOSPHOKINASE for each of these?
1. CC[C@H]1OC(=O)[C@H](C)[C@@H](O[C@H]2C[C@@](C)(OC)[C@@H](O)[C@H](C)O2)[C@H](C)[C@@H](O[C@@H]2O[C@H](C)C[C@H](N(C)C)[C@H]2O)[C@](C)(O)C[C@@H](C)C(=O)[C@H](C)[C@@H](O)[C@]1(C)O [ERYTHROMYCIN]
2. O=C(O)CCc1nc(-c2ccccc2)c(-c2ccccc2)o1 [OXAPROZIN]
3. COc1cc(/C=C/C(=O)O)ccc1O [FERULATE]

A:
[532.67, 243, 723.33]

---

# Species: Rattus norvegicus
# assaySummary: DrugMatrix - Regimen: Daily Repeat
# Type: toxicity, organism-based, Sprague-Dawley
# Set-up: regimen Daily Repeat, gender Male, age 6-8 weeks
# testConditions: in vivo, po, 1500 mg/kg, 72 h, tissue Plasma, route oral GAVAGE, dose level High, time 3 day, vehicle .5 % CMC
I'd appreciate it if you could supply CHOLESTEROL values for the items below.
Quick note: number first, unit second.

COc1ccc(Cl)cc1C(=O)NCCc1ccc(S(=O)(=O)NC(=O)NC2CCCCC2)cc1 [GLYBURIDE]	52.67 mg/dL
CC[C@H]1OC(=O)[C@H](C)[C@@H](O[C@H]2C[C@@](C)(OC)[C@@H](O)[C@H](C)O2)[C@H](C)[C@@H](O[C@@H]2O[C@H](C)C[C@H](N(C)C)[C@H]2O)[C@](C)(O)C[C@@H](C)C(=O)[C@H](C)[C@@H](O)[C@]1(C)O [ERYTHROMYCIN]	106.33 mg/dL
Cc1ccc(S(=O)(=O)NC(=O)NN2CCCCCC2)cc1 [TOLAZAMIDE]	46.67 mg/dL
COc1cc(/C=C/C(=O)O)ccc1O [FERULATE]	81.67 mg/dL

Reported CHOLESTEROL of O=C(O)CCc1nc(-c2ccccc2)c(-c2ccccc2)o1 [OXAPROZIN] : 70 mg/dL

---

# Species on record: Rattus norvegicus
# assaySummary: DrugMatrix - Regimen: Daily Repeat
# Assay type: toxicity, organism-based, Sprague-Dawley
# Parameters: regimen Daily Repeat, gender Male, age 6-8 weeks
# testConditions: in vivo, po, 0 mg/kg, 72 h, tissue Plasma, route oral GAVAGE, dose level Control, time 3 day, […]
I'd appreciate it if you could supply LACTATE DEHYDROGENASE values for the items below.
One number for each entry, in u/L.

CCC(C)(C)C(=O)O[C@H]1C[C@@H](C)C=C2C=C[C@H](C)[C@H](CC[C@@H]3C[C@@H](O)CC(=O)O3)[C@H]21	81.17
c1ccc2c(c1)Nc1ccccc1S2	85
O=C(O)COC(=O)Cc1ccccc1Nc1c(Cl)cccc1Cl	139.33

For the next question, use this molecule.
Reported LACTATE DEHYDROGENASE of CC(C)(c1ccc(O)cc1)c1ccc(O)cc1 : 94.5

---

# Organism: Rattus norvegicus
# assaySummary: DrugMatrix - Regimen: Daily Repeat
# Assay type: toxicity, organism-based, Sprague-Dawley
# Set-up: regimen Daily Repeat, gender Male, age 6-8 weeks
# testConditions: in vivo, po, 0 mg/kg, 120 h, tissue Blood, route oral GAVAGE, dose level Control, time 5 day, vehicle .5 % CMC
I'd appreciate it if you could supply ABSOLUTE EOSINOPHIL values for the items below.
Numbers only, in CELLS/uL.

Examples from the recorded data:
NC(=O)NC(=O)Cc1ccccc1 [PHENACEMIDE]	0
CC(=O)Nc1ccc2c(c1)Cc1ccccc1-2	69
CCOc1cc(N)c(Cl)cc1C(=O)NCC1CN(Cc2ccc(F)cc2)CCO1 (configuration not stated) [MOSAPRIDE]	69
COc1cc(/C=C/C(=O)O)ccc1O [FERULATE]	190.67
Cc1cc2c(s1)Nc1ccccc1N=C2N1CCN(C)CC1	31

Hey, quick one: what's ABSOLUTE EOSINOPHIL for each of these?
1. NC(=O)CN1CCCC1=O
2. O=C(O)CCc1nc(-c2ccccc2)c(-c2ccccc2)o1

A:
138.17
23.33

---

# Organism: Rattus norvegicus
# assaySummary: DrugMatrix - Regimen: Daily Repeat
# Format: toxicity, organism-based, Sprague-Dawley
# Parameters: regimen Daily Repeat, gender Male, age 6-8 weeks
# testConditions: in vivo, po, 0 mg/kg, 72 h, tissue Plasma, route oral GAVAGE, dose level Control, time 3 day, vehicle .5 % CMC
I'd appreciate it if you could supply ALBUMIN values for the items below.
Answers are plain numbers, in G/DL.

Examples from the recorded data:
CN(C)CCOC(c1ccccc1)c1ccccc1.Cn1c(=O)c2[nH]c(Cl)nc2n(C)c1=O [DIMENHYDRINATE]	4.22
COc1cc(/C=C/C(=O)O)ccc1O [FERULATE]	4.3
CC(C)Cc1ccc([C@H](C)C(=O)O)cc1	3.77
COc1cc(NC(C)CCCN)c2ncccc2c1 (stereo not given)	3.88

Reported ALBUMIN of O=C1c2ccccc2C(=O)C1c1ccccc1 : 3.8

---

# Organism: Rattus norvegicus
# assaySummary: DrugMatrix - Regimen: Daily Repeat
# Format: toxicity, organism-based, Sprague-Dawley
# Parameters: regimen Daily Repeat, gender Male, age 6-8 weeks
# testConditions: in vivo, po, 0 mg/kg, 120 h, tissue Plasma, route oral GAVAGE, dose level Control, time 5 day, […]
I'd appreciate it if you could supply PHOSPHORUS values for the items below.
One number for each entry, in mg/dL.

Examples from the recorded data:
CC#C[C@]1(O)CC[C@H]2[C@@H]3CCC4=CC(=O)CCC4=C3[C@@H](c3ccc(N(C)C)cc3)C[C@@]21C	9.98
Oc1ncnc2[nH]ncc12	11.08

For the next question, use this compound.
Reported PHOSPHORUS of COC(=O)Nc1nc2ccc(C(=O)c3ccccc3)cc2[nH]1 : 10.32

---

# Species on record: Rattus norvegicus
# assaySummary: DrugMatrix - Regimen: Daily Repeat
# Format: toxicity, organism-based, Sprague-Dawley
# Set-up: regimen Daily Repeat, gender Male, age 6-8 weeks
# testConditions: in vivo, iv, 0 mg/kg, 72 h, tissue Plasma, dose level Control, time 3 day, vehicle 100 % SALINE
I'd appreciate it if you could supply ASPARTATE AMINOTRANSFERASE values for the items below.
Numbers only, in u/L.

Hey, quick one: what's ASPARTATE AMINOTRANSFERASE for each of these?
1. COC(=O)C[C@](O)(CCC(C)(C)O)C(=O)O[C@@H]1C(OC)=C[C@]23CCCN2CCc2cc4c(cc2[C@H]13)OCO4 [HARRINGTONINE]
2. CC(=O)[C@]1(O)Cc2c(O)c3c(c(O)c2[C@@H](O[C@H]2C[C@H](N)[C@H](O)[C@H](C)O2)C1)C(=O)c1ccccc1C3=O [IDARUBICIN]
3. Cc1c(N)nc([C@H](CC(N)=O)NC[C@H](N)C(N)=O)nc1C(=O)N[C@H](C(=O)N[C@H](C)[C@@H](O)[C@H](C)C(=O)N[C@H](C(=O)NCCc1nc(-c2nc(C(=O)NCCC[S+](C)C)cs2)cs1)[C@@H](C)O)[C@@H](O[C@@H]1O[C@@H](CO)[C@@H](O)[C@H](O)[C@@H]1O[C@H]1O[C@H](CO)[C@@H](O)[C@H](OC(N)=O)[C@@H]1O)c1c[nH]cn1.[Br-] [BLEOMYCIN A2]
4. CO[C@@]12[C@H](COC(N)=O)C3=C(C(=O)C(C)=C(N)C3=O)N1C[C@@H]1N[C@@H]12 [MITOMYCIN]

A:
[77.5, 88.83, 89.33, 83.33]
